protocol.notes: Pharmacokinetics after intravenous and oral administration in rats
Format: in vivo
assay.conditions: rat, plasma, iv dosing, dose 1 mg/kg (Ex. 27: 0.72 mg/kg)
readout.name: AUC(0-t) (ng·h/mL)
Hi! Could you send only the number? It should be in ng·h/mL, unit omitted.

CN(c1nc(Nc2cnn(C)c2)ncc1Cl)C1CC2CN(C(=O)CC#N)CC2C1 (stereo not shown) has a reported AUC(0-t) of 281

Cn1cc(Nc2ncc(Cl)c(NC3CC4CNCC4C3)n2)cn1 (stereo not shown) has a reported AUC(0-t) of 146

CC(=O)N1CC2CC(Nc3nc(Nc4cnn(C)c4)ncc3Cl)CC2C1 (stereo not shown) has a reported AUC(0-t) of 264

N#CCC(=O)N1CCC2(CCC(Nc3nc(Nc4cnn(CCO)c4)ncc3Cl)CC2)CC1 has a reported AUC(0-t) of 384

---

Assignment: determine reported half-life for the given compounds.
protocol.notes: Pharmacokinetics after intravenous and oral administration in rats
Assay type: in vivo
assay.conditions: rat, plasma, iv dosing, dose 1 mg/kg (Ex. 27: 0.72 mg/kg)
Hi! Could you send only the number? It should be in min, unit omitted.

Cn1cc(Nc2ncc(Cl)c(NC3CC4CN(C(=O)CC#N)CC4C3)n2)cn1 (stereo not drawn) [Ex. 12] has a reported half-life of 14.4

Cn1cc(Nc2ncc(Cl)c(NC3CCC4(CC3)CCN(C(=O)CC#N)C4)n2)cn1 (single isomer, unassigned) [Ex. 14B] has a reported half-life of 29.4

Cc1cnc(Nc2cnn(C)c2)nc1NC1CN(C(=O)CC#N)CC12CCCC2 (stereo not drawn) [Ex. 8] has a reported half-life of 52.8

Cn1cc(Nc2ncc(Cl)c(NC3CCC4(CC3)CCN(C(=O)C(F)(F)F)CC4)n2)cn1 [Ex. 30] has a reported half-life of 69

Cn1cc(Nc2ncc(Cl)c(NC3CCC4CN(C(=O)CC#N)CC4C3)n2)cn1 (stereo not drawn) [Ex. 22] has a reported half-life of 25.8

N#CCC(=O)N1CCC2(CCC(Nc3nc(Nc4cnn(CCO)c4)ncc3Cl)CC2)CC1 [Ex. 50] has a reported half-life of 59.4

Cc1cnc(Nc2cnn(C)c2)nc1NC1CC2CN(S(C)(=O)=O)CC2C1 (stereo not drawn) [Ex. 62] has a reported half-life of 48.6

Cn1cc(Nc2ncc(Cl)c(NC3CC4CNCC4C3)n2)cn1 (stereo not drawn) [Ex. 11] has a reported half-life of 151

Cc1cc(Nc2ncc(Cl)c(NC3CC4CN(C(=O)CC#N)CC4C3)n2)nn1C (stereo not drawn) [Ex. 39] has a reported half-life of 41.4

---

protocol.notes: Compound stability in human liver microsomes
Type: in vitro ADME
assay.conditions: pH 7.4; Human liver microsomes; in vivo CLint extrapolated
readout.name: CLint scaled at 5 μM

COc1cnc(Nc2cc(C3CC3)[nH]n2)nc1NC1CC2CN(C(=O)CC#N)CC2C1 (stereo not drawn) has a reported CLint scaled at 5 μM of 25.4 mL/min/kg

Cn1cc(Nc2ncc(Cl)c(NC3CC4CN(S(C)(=O)=O)CC4C3)n2)cn1 (stereo not drawn) has a reported CLint scaled at 5 μM of 25.9 mL/min/kg

Cn1nc(C2CC2)cc1Nc1ncc(Cl)c(NC2CC3CN(C(=O)CC#N)CC3C2)n1 (stereo not drawn) has a reported CLint scaled at 5 μM of 46.2 mL/min/kg

Cc1cnc(Nc2cnn(C)c2)nc1NC1CC2CN(C(=O)CC#N)CC2C1 (stereo not drawn) has a reported CLint scaled at 5 μM of 7.11 mL/min/kg

Cn1cc(Nc2ncc(Cl)c(NC3CC4CN(CC(F)(F)F)CC4C3)n2)cn1 (stereo not drawn) has a reported CLint scaled at 5 μM of 261 mL/min/kg

CN(c1nc(Nc2cnn(C)c2)ncc1Cl)C1CC2CN(C(=O)CC#N)CC2C1 (stereo not drawn) has a reported CLint scaled at 5 μM of 18.2 mL/min/kg

Cn1cc(Nc2ncc(Cl)c(NC3CC4CN(C(=O)CC#N)CC4C3)n2)cn1 (stereo not drawn) has a reported CLint scaled at 5 μM of 9.3 mL/min/kg

N#CCC(=O)N1CC2CC(Nc3nc(Nc4cnn(CCO)c4)ncc3Cl)CC2C1 (stereo not drawn) has a reported CLint scaled at 5 μM of 7.15 mL/min/kg

CN(c1ccnc(Nc2cnn(C)c2)n1)C1CNCC12CCCC2 (stereo not drawn) has a reported CLint scaled at 5 μM of 9.49 mL/min/kg

---

protocol.notes: Compound stability in human liver microsomes
Format: in vitro ADME
assay.conditions: pH 7.4; Human liver microsomes; in vivo CLint extrapolated
readout.name: CLint scaled at 5 μM

Cn1cc(Nc2ncc(C#N)c(NC3CC4CN(C(=O)CC#N)CC4C3)n2)cn1 (stereo not shown) has a reported CLint scaled at 5 μM of 5.87 mL/min/kg

Cc1cnc(Nc2cnn(C)c2)nc1NC1CC2CN(S(C)(=O)=O)CC2C1 (stereo not shown) has a reported CLint scaled at 5 μM of 6.41 mL/min/kg

Cc1c(Nc2ncc(Cl)c(NC3CC4CN(C(=O)CC#N)CC4C3)n2)cnn1C (stereo not shown) has a reported CLint scaled at 5 μM of 21.3 mL/min/kg

CC(=O)N1CC2CC(Nc3nc(Nc4cnn(C)c4)ncc3Cl)CC2C1 (stereo not shown) has a reported CLint scaled at 5 μM of 8.6 mL/min/kg

Cn1cc(Nc2ncc(Cl)c(NC3CC4CN(C(=O)C(F)(F)F)CC4C3)n2)cn1 (stereo not shown) has a reported CLint scaled at 5 μM of 91.6 mL/min/kg

Cc1cc(Nc2ncc(Cl)c(NC3CC4CN(C(=O)CC#N)CC4C3)n2)nn1C (stereo not shown) has a reported CLint scaled at 5 μM of 13.7 mL/min/kg

N#CCC(=O)N1CC2CC(Nc3nc(Nc4cnn(CC5CC5)c4)ncc3Cl)CC2C1 (stereo not shown) has a reported CLint scaled at 5 μM of 44.2 mL/min/kg

Cn1cc(Nc2ncc(Cl)c(NC3CCC4CN(C(=O)CC#N)CC4C3)n2)cn1 (stereo not shown) has a reported CLint scaled at 5 μM of 11 mL/min/kg

CC(=O)N1CC2CC(Nc3nc(Nc4cc(C5CC5)[nH]n4)ncc3Cl)CC2C1 (stereo not shown) has a reported CLint scaled at 5 μM of 6.53 mL/min/kg

Cc1nn(C)cc1Nc1ncc(Cl)c(NC2CC3CN(C(=O)CC#N)CC3C2)n1 (stereo not shown) has a reported CLint scaled at 5 μM of 27.7 mL/min/kg

---

protocol.notes: Pharmacokinetics after intravenous and oral administration in rats
Format: in vivo
assay.conditions: rat, plasma, iv dosing, dose 1 mg/kg (Ex. 27: 0.72 mg/kg)
Assignment: determine reported half-life for the given molecules.
Hi! Could you send only the number? It should be in min, unit omitted.

Cn1cc(Nc2ncc(Cl)c(NC3CCC4(CC3)CCN(c3ccc(C#N)cn3)CC4)n2)cn1 has a reported half-life of 46.2

CC(=O)N1CC2CC(Nc3nc(Nc4cc(C5CC5)[nH]n4)ncc3Cl)CC2C1 (stereo not shown) has a reported half-life of 61.2

Cc1c(Nc2ncc(Cl)c(NC3CC4CN(C(=O)CC#N)CC4C3)n2)cnn1C (stereo not shown) has a reported half-life of 16.2

Cc1cc(Nc2ncc(Cl)c(NC3CCC4(CC3)CCN(C(=O)CC#N)CC4)n2)nn1C has a reported half-life of 71.4

CC(=O)N1CCC2(CCC(Nc3nc(Nc4cnn(C)c4)ncc3Cl)CC2)CC1 has a reported half-life of 39

Cn1cc(Nc2ncc(Cl)c(NC3CCC4(CC3)CCN(S(C)(=O)=O)CC4)n2)cn1 has a reported half-life of 49.2

CN(c1ccnc(Nc2cnn(C)c2)n1)C1CNCC12CCCC2 (stereo not shown) has a reported half-life of 226

Cn1nc(C2CC2)cc1Nc1ncc(Cl)c(NC2CC3CN(C(=O)CC#N)CC3C2)n1 (stereo not shown) has a reported half-life of 32.4

Cn1cc(Nc2ncc(Cl)c(NC3CN(C(=O)CC#N)CC34CCCC4)n2)cn1 (stereo not shown) has a reported half-life of 136

N#CCC(=O)N1CCC2(CCC(Nc3nc(Nc4cnn(CC5CC5)c4)ncc3Cl)CC2)CC1 has a reported half-life of 43.8

Cc1cnc(Nc2cnn(C)c2)nc1NC1CC2CN(c3ccc(C#N)cn3)CC2C1 (stereo not shown) has a reported half-life of 58.2

N#CCC(=O)N1CC2CC(Nc3nc(Nc4cnn(CCO)c4)ncc3Cl)CC2C1 (stereo not shown) has a reported half-life of 33

CC(=O)N1CC2CC(Nc3nc(Nc4cnn(C)c4)ncc3Cl)CC2C1 (stereo not shown) has a reported half-life of 35.4

---

Assignment: determine reported Vd for the given compounds.
protocol.notes: Pharmacokinetics after intravenous and oral administration in rats
Type: in vivo
assay.conditions: rat, plasma, iv dosing, dose 1 mg/kg (Ex. 27: 0.72 mg/kg), read-out: Vss
Hi! Could you send only the number? It should be in L/kg, unit omitted.

Cn1cc(Nc2ncc(Cl)c(NC3CC4CN(c5ccc(C#N)cn5)CC4C3)n2)cn1 (stereo not drawn) has a reported Vd of 3.33

CN(c1nc(Nc2cnn(C)c2)ncc1Cl)C1CCC2(CCNC2)CC1 (single isomer, unassigned) [Ex. 3.10A] has a reported Vd of 13.5

Cn1cc(Nc2ncc(Cl)c(NC3CCC4(CC3)CCN(C(=O)CC#N)C4)n2)cn1 (single isomer, unassigned) [Ex. 14B] has a reported Vd of 2.41
